- Test system: HeLa cells
- protocolText: Evaluation of the cell membrane permeability by flow cytometry
- Assay type: cell-based, human
- reportedConditions: mean fluorescent intensity of HeLa cells; 10 μM in culture medium, 0.5% DMSO, 20 hours at 37° C., FL2 detector
Overview of recorded MFI for various substances
Form rule: numeric answer, no unit written next to it.

Before answering, review these 4 worked examples.
substance	val
Ac-KKRTLRKSNRKKR-FAM [Example 3]	12.4
Ac-KKRTLRKKKRKKR-FAM [Example 4]	24.3
FAM-KKRTLRKSNRKKR-CONH2 [Example 3′]	62
Ac-KKRTLRKKKRKKRWPC-FAM (Ac-KKRTLRKKKRKKRWPC-{FAM}) [Example 2, foreign substance introduction construct provided with peptide 2, FAM bonded to the C-terminal side]	121

# next substance below
Return MFI (reported value) for this substance: Ac-KKRTLRKSNRKKRWPC-FAM (Ac-KKRTLRKSNRKKRWPC-{FAM}) [Example 1, foreign substance introduction construct provided with peptide 1, FAM bonded to the C-terminal side]
87.5
